In this section we review reported apparent KD of MS2 coat protein values for a set of sequences.
test system: MS2 coat protein; test: apparent KD of MS2 coat protein; higher = weaker reporter binding; details: Eterna round: R107; input ligand: theophylline 2 mM
# number then unit; no other words

Name the recorded apparent KD of MS2 coat protein for GCACCAGGUACGGAUACCAGCUAUAGGCACAGAGGAGGACAUGAGGAUCACCCAUGUGAUGGCCCUUGGCAGCUGUACCUGGUGC [EThB NP+V+V2 #3] .
171 nM

Name the recorded apparent KD of MS2 coat protein for GCACCAGGUACGGAUACCAGCUAUAGGUACAGCGGAGGACAUGAGGAUCACCCAUGUGGUAGCCCUUGGCAGCUGUACCUGGUGC [EThB NP+V+V2 #1 +-Same Structure] .
40.4 nM

Name the recorded apparent KD of MS2 coat protein for GUACAUGAGGAUCACCCAUGUAUAGUUGAAGGAGCGACCGGUGGGUCAGGUAGGUCGCAGCGCAUGGCGUCCACGCGUGUAUGCC [#1 Exclusion - Arginine A Attempt #29 (Inspired by Pi)] .
11.1 nM

Name the recorded apparent KD of MS2 coat protein for ACUGUCUUUGAUGAUAUGUAUGGGUCAUUGCGAGGACCGGUACGGCCGCCACUCGGUCCGCCACAUGAGGAUCACCCAUGUCUAU [theeternabot_exclusion_MS2_Trp_A_37] .
195 nM

More entries:
Name the recorded apparent KD of MS2 coat protein for ACAUGAGGAUCACCCAUGUAAUAAGGAGAAGGAGCGCGUAAGGACGCAGGUAGGUCGCUCGUGGUCCGGCCGCAAGGCCGGACCA [#1 Same State - Arginine A Attempt #8 (HarryS)] .
8.04 nM
